Data credit: ChEMBL document CHEMBL3044593

Entries annotated with measured TD50 at 0.5 min
# assay.method.text: Acute neurotoxicity in ip dosed Mus musculus (mouse) assessed as motor impairment administered 30 min prior to testing measured for 30 secs by chimney test
# Type: toxicity, organism-based
# condition: in vivo
reported.endpoint: TD50 at 0.5 min (µmol/kg)

{"molecule": "CCCC(CCC)C(=O)[O-].[Na+] [VALPROATE SODIUM]", "reported.endpoint": "TD50 at 0.5 min", "reported.value": 9600}
{"molecule": "CCOC(=O)NNC(=O)COc1cccc2c(=O)n(-c3ccccc3C)c(C)nc12", "reported.endpoint": "TD50 at 0.5 min", "reported.value": 600}
{"molecule": "CSC(=S)NNC(=O)COc1cccc2c(=O)n(-c3ccccc3C)c(C)nc12", "reported.endpoint": "TD50 at 0.5 min", "reported.value": 670}
{"molecule": "Cc1ccccc1-n1c(C)nc2ccccc2c1=O [METHAQUALONE]", "reported.endpoint": "TD50 at 0.5 min", "reported.value": 1600}
{"molecule": "Cc1ccccc1-n1c(C)nc2c(OCC(=O)NN)cccc2c1=O", "reported.endpoint": "TD50 at 0.5 min", "reported.value": 790}

* * *

# assay.method.text: Toxicity in ip dosed Mus musculus (mouse) assessed as mortality
# Assay type: organism-based
# condition: in vivo

{"compound": "Cc1ccccc1-n1c(C)nc2c(OCC(=O)NN)cccc2c1=O", "measure.unit": "µmol/kg", "LD50": 2960}
{"compound": "CSC(=S)NNC(=O)COc1cccc2c(=O)n(-c3ccccc3C)c(C)nc12", "measure.unit": "µmol/kg", "LD50": 1170}
{"compound": "CCCC(CCC)C(=O)[O-].[Na+] [VALPROATE SODIUM]", "measure.unit": "µmol/kg", "LD50": 11900}
{"compound": "CCOC(=O)NNC(=O)COc1cccc2c(=O)n(-c3ccccc3C)c(C)nc12", "measure.unit": "µmol/kg", "LD50": 1020}

* * *

# Test system: Mus musculus
# assay.method.text: Anticonvulsant activity in Mus musculus (mouse) assessed as protection against maximal electroshock-induced seizures at 0.5 mmol/kg, ip administered 30 min prior to seizure induction measured for 60 min relative to control
# Type: functional
In this section, each of the compounds is paired with its reported Activity.

{"smiles.representation": "CSC(=S)NNC(=O)COc1cccc2c(=O)n(-c3ccccc3C)c(C)nc12", "measure.unit": "%", "Activity": 100}
{"smiles.representation": "Cc1ccccc1-n1c(C)nc2c(OCC(=O)NNC(N)=O)cccc2c1=O", "measure.unit": "%", "Activity": 0}
{"smiles.representation": "Cc1ccccc1-n1c(C)nc2c(OCC(=O)NCCO)cccc2c1=O", "measure.unit": "%", "Activity": 0}
{"smiles.representation": "CCOC(=O)NNC(=O)COc1cccc2c(=O)n(-c3ccccc3C)c(C)nc12", "measure.unit": "%", "Activity": 100}
{"smiles.representation": "Cc1ccccc1-n1c(C)nc2c(OCC(=O)N/N=C\\c3ccccc3F)cccc2c1=O", "measure.unit": "%", "Activity": 50}
{"smiles.representation": "Cc1ccccc1-n1c(C)nc2c(OCC(=O)NNC(=S)NN)cccc2c1=O", "measure.unit": "%", "Activity": 33}
{"smiles.representation": "Cc1ccccc1-n1c(C)nc2c(OCC(=O)NN)cccc2c1=O", "measure.unit": "%", "Activity": 50}
{"smiles.representation": "Cc1ccccc1-n1c(C)nc2c(OCC(=O)NNC(=O)NN)cccc2c1=O", "measure.unit": "%", "Activity": 0}
{"smiles.representation": "Cc1ccccc1-n1c(C)nc2c(OCC(=O)N/N=C\\c3ccccc3)cccc2c1=O", "measure.unit": "%", "Activity": 0}
{"smiles.representation": "COc1ccccc1/C=N\\NC(=O)COc1cccc2c(=O)n(-c3ccccc3C)c(C)nc12", "measure.unit": "%", "Activity": 0}
